The measurements presented in this section are drawn from ChEMBL document CHEMBL1153192.

Test system: MDR1
assay.summary: Apparent permeability from apical to basolateral side of MDCK cells expressing MDR1
Type: ADME, cell-based, Canis lupus familiaris
settings: dog
measured.parameter: Papp A→B (×10⁻⁶ cm/s)
Field format: number, assumed ×10⁻⁶ cm/s, no unit text.

{"compound": "Cc1cc2cc(n1)OCCCCOc1cccc(c1)C[C@@H]([C@H](O)CNCc1cccc(C(C)C)c1)NC2=O", "unit.of.measurement": "×10⁻⁶ cm/s", "Papp A→B": 1.3}

Req: Identify the measured Papp A→B of Cc1cc2cc(n1)NCCCCOc1cccc(c1)C[C@@H]([C@H](O)CNCc1cccc(C(C)C)c1)NC2=O for MDR1.
Resp: 0.17

====

assay.summary: Dissociation constant, pKa of the compound
Assay type: physicochemical
measured.parameter: pKa
API doc: respond with a numeric literal and nothing else, no unit.

Req: What value of pKa has been reported for the following molecule? Cc1cc2cc(n1)OCCCCOc1cccc(c1)C[C@@H]([C@H](O)CNC(C)c1cccc(C(C)C)c1)NC2=O (some centres undefined)
Resp: 8.5

Req: Try this molecule next: COCc1cc2cc(c1)C(=O)N[C@H]([C@H](O)CNC(c1cccc(C(C)(C)C)c1)C(F)(F)F)Cc1cccc(c1)OCCCCN2 (some centres undefined)
Resp: 3.8

Req: Try this molecule next: COCc1cc2cc(c1)C(=O)N[C@H]([C@H](O)CNC(CF)c1cccc(C(C)(C)C)c1)Cc1cccc(c1)OCCCCN2 (some centres undefined)
Resp: 7.2

Req: Try this molecule next: COCc1cc2cc(c1)C(=O)N[C@H]([C@H](O)CNC1(c3cccc(C(C)C)c3)CC1)Cc1cccc(c1)OCCCCN2
Resp: 7.3

====

assay.summary: Plasma concentration in APP50/16 tg mouse at 60 umol/kg, po after 4 hrs
Format: ADME, organism-based
settings: APP50/16 transgenic
measured.parameter: concentration at 4 h (nM)
Field format: number, assumed nM, no unit text.

{"molecule.smiles": "COCc1cc2cc(c1)C(=O)N[C@H]([C@H](O)CNC1(c3cccc(C(C)C)c3)CC1)Cc1cccc(c1)OCCCCN2", "measured.parameter": "concentration at 4 h", "unit.of.measurement": "nM", "reported": 1200}
{"molecule.smiles": "Cc1cc2cc(n1)OCCCCOc1cccc(c1)C[C@@H]([C@H](O)CNCc1cccc(C(C)C)c1)NC2=O", "measured.parameter": "concentration at 4 h", "unit.of.measurement": "nM", "reported": 30}
{"molecule.smiles": "Cc1cc2cc(n1)OCCCCOc1cccc(c1)C[C@@H]([C@H](O)CNC1(c3cccc(C(C)C)c3)CC1)NC2=O", "measured.parameter": "concentration at 4 h", "unit.of.measurement": "nM", "reported": 3000}

Req: What value of concentration at 4 h has been reported for the following molecule? COCc1cc2cc(n1)OCCCCOc1cccc(c1)C[C@@H]([C@H](O)CNC1(c3cccc(C(C)C)c3)CC1)NC2=O
Resp: 2200

====

Tested on: MDR1
assay.summary: Apparent permeability from apical to basolateral side of MDCK cells expressing MDR1
Format: ADME, cell-based, Canis lupus familiaris
settings: dog
Lab note: anything with Papp A→B at or over 2 ×10⁻⁶ cm/s counts as Satisfied; the rest go in Not satisfied.

{"molecule": "COCc1cc2cc(c1)C(=O)N[C@H]([C@H](O)CNC1(c3cccc(C(C)C)c3)CC1)Cc1cccc(c1)OCCCCN2", "system.name": "MDR1", "answer.label": "Satisfied"}

Req: Would you say CC(C)c1cccc(CNC[C@@H](O)[C@@H]2Cc3cccc(c3)OCCCCNc3cc(cc(N4C=COC4)c3)C(=O)N2)c1 shows Papp A→B at minimum 2 ×10⁻⁶ cm/s?
Resp: Not satisfied

Req: Try this molecule next: CCCS(=O)(=O)N(C)c1cc2cc(c1)C(=O)N[C@H]([C@H](O)CNC1(c3cccc(C(C)C)c3)CC1)Cc1cccc(c1)OCCCCN2
Resp: Not satisfied

Req: Try this molecule next: COCc1cc2cc(c1)C(=O)N[C@H]([C@H](O)CNC1(c3cccc(C(C)(C)C)c3)CCCC1)Cc1cccc(c1)OCCCCN2
Resp: Not satisfied

Req: Try this molecule next: COCc1cc2cc(c1)C(=O)N[C@H]([C@H](O)CNC(COC)c1cccc(C(C)(C)C)c1)Cc1cccc(c1)OCCCCN2 (some centres not stated)
Resp: Not satisfied

Req: Try this molecule next: COCc1cc2cc(n1)OCCCCOc1cccc(c1)C[C@@H]([C@H](O)CNC1(c3cccc(C(C)C)c3)CC1)NC2=O
Resp: Satisfied
